experiment: Intranasal bioavailability of hydrocodone conjugates; conditions: rats, relative to hydrocodone
Residues, ends and D or L forms follow the SMILES beside them. *: point of attachment. X1 = COc1ccc2c3c1OC1C(O*)=CCC4[C@@H](C2)N(C)CC[C@]314
Readout Label: bioavailabiltty (% HC) IN Cmax
Return type: number; implicit unit % HC.

Qu. # bioavailabiltty (% HC) IN Cmax lookup, item CC[C@H](C)[C@H](NC(=O)[C@H](CC(=O)O)NC(=O)[C@H](CC(=O)O)NC(=O)[C@H](CCC(=O)O)NC(=O)[C@@H](N)CCC(=O)O)C(=O)OC1=CCC2[C@H]3Cc4ccc(OC)c5c4[C@@]2(CCN3C)C1O5 (stereo partly drawn) [Glu2-Asp2-Ile-HC] (H-EEDDI-X1)
Ans. 81

Qu. # bioavailabiltty (% HC) IN Cmax lookup, item CC[C@H](C)[C@H](NC(=O)[C@H](CCC(=O)O)NC(=O)[C@H](CCC(=O)O)NC(=O)CNC(=O)CN)C(=O)OC1=CCC2[C@H]3Cc4ccc(OC)c5c4[C@@]2(CCN3C)C1O5 (stereo partly drawn) [Gly2-Glu2-Ile-HC] (H-GGEEI-X1)
Ans. 77

Qu. # bioavailabiltty (% HC) IN Cmax lookup, item CC[C@H](C)[C@H](NC(=O)[C@H](CC(=O)O)NC(=O)[C@H](CC(=O)O)NC(=O)[C@H](CCCCN)NC(=O)[C@@H](N)CCCCN)C(=O)OC1=CCC2[C@H]3Cc4ccc(OC)c5c4[C@@]2(CCN3C)C1O5 (stereo partly drawn) [Lys2-Asp2-Ile-HC] (H-KKDDI-X1)
Ans. 56
